- testTarget: S1P4 (Homo sapiens, UniProt O95977)
- measurementProtocol: S1P receptor activity assay (calcium flux, FLIPR TETRA), S1P4
- Assay type: cell-based
pIC50: −log10 of the molar value.
resultType: pIC50

{"columns": ["structure", "resultType", "result"],
 "data": [
  ["CCCCCCCCOc1ccc(N2CCN(CC34CCC(C(=O)O)(CC3)CC4)CC2)cc1", "pIC50", "≥ 5.30"],
  ["CC(C)(C)[C@H]1CC[C@H](Oc2ccc(C3=CCN(CCCC(=O)O)CC3)cc2)CC1", "pIC50", "≥ 5.70"],
  ["CC[C@H]1CC[C@@H](Oc2ccc(C3=CCN(CCCCC(=O)O)CC3)cc2)CC1", "pIC50", "≥ 5.70"],
  ["CC[C@H]1CC[C@@H](Oc2ccc(C3=CCN(CCC(=O)O)CC3)cc2)CC1", "pIC50", "≥ 5.70"],
  ["CC[C@H]1CC[C@H](Oc2ccc(C3=CCN(CCC(=O)O)CC3)cc2)CC1", "pIC50", "< 5.30"],
  ["O=C(O)CCN1CC=C(c2ccc(OC3CCC4(CCCC4)CC3)cc2)CC1", "pIC50", "5.30 to 5.70"],
  ["CC(C)(C)[C@H]1CC[C@H](Oc2ccc(C3=CCN(CCCCC(=O)O)CC3)cc2)CC1", "pIC50", "≥ 5.70"],
  ["CC[C@H]1CC[C@H](Oc2ccc(C3=CCN(CCCCC(=O)O)CC3)cc2)CC1", "pIC50", "≥ 5.70"],
  ["O=C(O)CCCCN1CC=C(c2ccc(OC3CCC4(CCCC4)CC3)cc2)CC1", "pIC50", "5.30 to 5.70"],
  ["CCCCCCCCOc1ccc(N2CCN(CCCC(=O)O)CC2)cc1", "pIC50", "≥ 5.70"],
  ["CC[C@H]1CC[C@@H](Oc2ccc(C3=CCN(CCCC(=O)O)CC3)cc2)CC1", "pIC50", "≥ 5.70"],
  ["CC[C@H]1CC[C@H](Oc2ccc(C3=CCN(CCCC(=O)O)CC3)cc2)CC1", "pIC50", "≥ 5.70"],
  ["CC(C)(C)[C@H]1CC[C@H](Oc2ccc(C3=CCN(CCC(=O)O)CC3)cc2)CC1", "pIC50", "≥ 5.70"],
  ["CCCCCCCCOc1ccc(N2CCN(CCC(=O)O)CC2)cc1", "pIC50", "≥ 5.70"]
]}

---

- testTarget: S1P4 (Homo sapiens)
- Sequence (O95977 1-384): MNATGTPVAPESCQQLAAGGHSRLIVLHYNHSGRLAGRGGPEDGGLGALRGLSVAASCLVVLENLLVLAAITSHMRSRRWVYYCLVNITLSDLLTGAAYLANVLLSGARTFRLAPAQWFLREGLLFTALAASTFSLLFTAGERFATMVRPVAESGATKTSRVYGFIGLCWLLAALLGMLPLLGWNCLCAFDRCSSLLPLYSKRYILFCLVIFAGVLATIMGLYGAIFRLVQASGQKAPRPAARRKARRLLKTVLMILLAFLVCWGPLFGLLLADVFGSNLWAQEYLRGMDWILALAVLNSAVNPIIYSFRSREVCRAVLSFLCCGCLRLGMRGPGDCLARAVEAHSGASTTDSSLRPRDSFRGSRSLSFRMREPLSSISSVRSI
- measurementProtocol: S1P receptor activity assay (calcium flux, FLIPR TETRA), S1P4
- Assay type: cell-based
- assaySetup: calcium flux, top concentration 10 μM; the >5 μM sentence says only 'for S1P4'; read-out: IC50 for S1P4 agonist activity

{"columns": ["molecule", "IC50"],
 "data": [
  ["CC(C)(C)[C@H]1CC[C@H](Oc2ccc(C3CCCN(C4CCC(C(=O)O)CC4)C3)cc2)CC1 (some centres unmarked)", "≤ 2 µM"],
  ["CC(C)(C)[C@H]1CC[C@H](Oc2ccc(NC3CCCN(CCC(=O)O)C3)cc2)CC1 (relative stereo)", "2 to 5 µM"],
  ["CC[C@H]1CC[C@H](Oc2ccc(C3CCN(CCC(=O)O)CC3)cc2)CC1", "> 5 µM"],
  ["CC(C)(C)[C@H]1CC[C@H](Oc2ccc(C3CCN(CCCCC(=O)O)CC3)cc2)CC1", "≤ 5 µM"],
  ["CCCCCCCCOc1ccc(N2CCN(CCC(=O)O)CC2)nc1", "> 5 µM"],
  ["CC[C@H]1CC[C@H](Oc2ccc(C3CCN(CCCCC(=O)O)CC3)cc2)CC1", "> 5 µM"],
  ["CC[C@H]1CC[C@@H](Oc2ccc(C3CCN(CCCCC(=O)O)CC3)cc2)CC1", "≤ 2 µM"],
  ["O=C(O)CCN1CCC(c2ccc(OC3CCC4(CCCC4)CC3)cc2)CC1", "≤ 2 µM"]
]}

---

- testTarget: Human ATX protein (Homo sapiens, UniProt Q13822)
- Construct: made in house
- measurementProtocol: Autotaxin (ATX) FRET assay with FS-3 substrate
- Format: biochemical
- assaySetup: FS-3 2 μM, ATX 1.0 μg/mL, 2 hours at room temperature; read-out: IC50 (ATX)
pIC50: −log10 of the molar value.
# pIC50 per record follows

{"columns": ["compound", "pIC50"],
 "data": [
  ["CC(C)(C)[C@H]1CC[C@H](Oc2ccc(N3CCN(CC45CCC(C(=O)O)(CC4)CC5)CC3)cc2)CC1", "≥ 5.30"],
  ["CC(C)(C)[C@H]1CC[C@@H](Oc2ccc(C3CCCN(CCCC(=O)O)C3)cc2)CC1 (stereo in doubt)", "5.00 to 5.30"],
  ["CC(C)(C)[C@H]1CC[C@H](Oc2ccc(NC3CCCN(CCC(=O)O)C3)nc2)CC1 (relative stereo)", "< 5.00"],
  ["CC[C@H]1CC[C@@H](Oc2ccc(C3CCN(CCC(=O)O)CC3)cc2)CC1", "< 5.00"],
  ["O=C(O)CCCCN1CC=C(c2ccc(OC3CCC4(CCCC4)CC3)cc2)CC1", "< 5.00"],
  ["CC(C)(C)[C@H]1CC[C@H](Oc2ccc(C3CCN(CCC(=O)O)CC3)cc2)CC1", "5.00 to 5.30"],
  ["CCCCCCCCOc1ccc(N2CCN(CCC(=O)O)CC2)nn1", "5.00 to 5.30"],
  ["CC(C)(C)[C@H]1CC[C@H](Oc2ccc(C3=CCN(CCC(=O)O)CC3)cc2)CC1", "5.00 to 5.30"]
]}

---

Reported IC50 is given for each of the following molecules.
- testTarget: Human ATX protein (Homo sapiens, UniProt Q13822)
- Construct: made in house
- measurementProtocol: Autotaxin (ATX) FRET assay with FS-3 substrate
- Format: biochemical
- assaySetup: FS-3 2 μM, ATX 1.0 μg/mL, 2 hours at room temperature; read-out: IC50 (ATX)
- Excerpt: ATX (Autotaxin) is a 125 KDa glycoprotein with lysophospholipase D (LPLD) activity that generates the bioactive lipid lysophosphatidic acid (LPA) from lysophosphatidylcholine (LPC). The ATX biochemical assay utilizes a FRET (fluorescence resonance energy transfer) technology platform. […] The reaction is monitored by a SpectraMax M5 (Molecular Devices, Sunnyvale, Calif.) with at excitation wavelength 485 nm and emission wavelength 535 nm. […]

{"columns": ["molecule", "IC50"],
 "data": [
  ["CCCCCCCCOc1ccc(C2CCCN(C3CCC(C(=O)O)CC3)C2)cc1 (stereo not drawn)", "5 to 10 µM"],
  ["CC(C)(C)[C@H]1CC[C@H](Oc2ccc(N3CCN(CCCC(=O)O)CC3)cc2)CC1", "> 10 µM"],
  ["CCCCCCCCOc1ccc(C2CCCC(N3CCC(C(=O)O)CC3)C2)cc1 (stereo not drawn)", "> 10 µM"],
  ["O=C(O)CCN1CCC(c2ccc(OC3CCC4(CCCC4)CC3)cc2)CC1", "≤ 5 µM"],
  ["CC[C@H]1CC[C@H](Oc2ccc(C3CCN(CCCCC(=O)O)CC3)cc2)CC1", "≤ 5 µM"],
  ["CCCCCCCCOc1ccc(NC2CCCN(CCC(=O)O)C2)nc1 (stereo not drawn)", "5 to 10 µM"],
  ["CC[C@H]1CC[C@@H](Oc2ccc(C3=CCN(CCCC(=O)O)CC3)cc2)CC1", "> 10 µM"],
  ["CC[C@H]1CC[C@@H](Oc2ccc(C3CCN(CCCC(=O)O)CC3)cc2)CC1", "5 to 10 µM"],
  ["CC[C@H]1CC[C@H](Oc2ccc(C3CCN(CCC(=O)O)CC3)cc2)CC1", "> 10 µM"]
]}

---

- testTarget: S1P5 (Homo sapiens)
- Sequence (Q9H228 whole entry): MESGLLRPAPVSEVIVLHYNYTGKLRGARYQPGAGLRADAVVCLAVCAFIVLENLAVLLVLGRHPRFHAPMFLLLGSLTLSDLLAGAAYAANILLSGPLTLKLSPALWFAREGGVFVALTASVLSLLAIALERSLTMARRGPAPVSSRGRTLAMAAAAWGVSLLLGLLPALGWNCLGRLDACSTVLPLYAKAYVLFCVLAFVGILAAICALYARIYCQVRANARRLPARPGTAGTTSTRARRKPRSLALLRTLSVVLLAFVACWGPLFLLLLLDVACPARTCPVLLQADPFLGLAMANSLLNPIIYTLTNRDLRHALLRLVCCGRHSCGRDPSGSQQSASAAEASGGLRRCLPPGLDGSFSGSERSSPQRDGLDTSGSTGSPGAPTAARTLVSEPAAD
- measurementProtocol: S1P receptor activity assay (calcium flux, FLIPR TETRA), S1P5
- Assay type: cell-based
- assaySetup: calcium flux, top concentration 10 μM; read-out: IC50 for S1P5

{"columns": ["molecule", "IC50"],
 "data": [
  ["CC(C)(C)[C@H]1CC[C@H](Oc2ccc(C3CCN(CCC(=O)O)CC3)cc2)CC1", "> 5 µM"],
  ["CC(C)(C)[C@H]1CC[C@H](Oc2cccc(C3CCCN(CCCC(=O)O)C3)c2)CC1 (stereo partly shown)", "> 5 µM"],
  ["CC[C@H]1CC[C@H](Oc2ccc(C3CCN(CCC(=O)O)CC3)cc2)CC1", "> 5 µM"],
  ["CCCCCCCCOc1ccc(C2CCCC(N3CCC(C(=O)O)CC3)C2)cc1 (stereo not shown)", "> 5 µM"],
  ["CC[C@H]1CC[C@H](Oc2ccc(C3CCN(CCCCC(=O)O)CC3)cc2)CC1", "> 5 µM"],
  ["CC[C@H]1CC[C@@H](Oc2ccc(C3CCN(CCCCC(=O)O)CC3)cc2)CC1", "> 5 µM"],
  ["CCCCCCCCOc1cccc(C2CCCN(CCCC(=O)O)C2)c1 (stereo not shown)", "> 5 µM"],
  ["O=C(O)CCCN1CC=C(c2ccc(OC3CCC4(CCCC4)CC3)cc2)CC1", "2 to 5 µM"],
  ["CC(C)(C)[C@H]1CC[C@H](Oc2cccc(C3CCCN(CCC(=O)O)C3)c2)CC1 (stereo partly shown)", "> 5 µM"],
  ["CC(C)(C)[C@H]1CC[C@H](Oc2ccc(C3CCN(CCC(=O)O)C3)cc2)CC1 (stereo partly shown)", "> 5 µM"],
  ["CCCCCCCCOc1ccc(C2CCCN(CCCC(=O)O)C2)cc1 (stereo not shown)", "> 5 µM"],
  ["CC[C@H]1CC[C@@H](Oc2ccc(C3CCN(CCCC(=O)O)CC3)cc2)CC1", "> 5 µM"],
  ["CC[C@H]1CC[C@@H](Oc2ccc(C3=CCN(CCCCC(=O)O)CC3)cc2)CC1", "2 to 5 µM"],
  ["CC[C@H]1CC[C@H](Oc2ccc(C3=CCN(CCCC(=O)O)CC3)cc2)CC1", "> 5 µM"],
  ["O=C(O)CCCN1CCC(c2ccc(OC3CCC4(CCCC4)CC3)cc2)CC1", "> 5 µM"],
  ["CCCCCCCCOc1ccc(N2CCN(CCC(=O)O)CC2)nn1", "> 5 µM"],
  ["O=C(O)CCCCN1CCC(c2ccc(OC3CCC4(CCCC4)CC3)cc2)CC1", "≤ 2 µM"],
  ["O=C(O)CCCCN1CC=C(c2ccc(OC3CCC4(CCCC4)CC3)cc2)CC1", "> 5 µM"],
  ["CC(C)(C)[C@H]1CC[C@H](Oc2ccc(N3CCN(CC45CCC(C(=O)O)(CC4)CC5)CC3)cc2)CC1", "> 5 µM"]
]}

Source listed as patent US9850206B2.
